Test system: Trichophyton rubrum
TEST_DETAILS: MIC (Minimum Inhibitory Concentration)
Assay type: cell-based
SETUP_CONDITIONS: Trichophyton rubrum 494-62, read-out: MIC values
MEASUREMENT_NAME: MIC (µg/mL)

Reference set, count: 8
COMPOUND | SYSTEM | MEASUREMENT_NAME | MEASURE_UNIT | MEASURED_NUMBER
[C-]#[N+]C(=Cc1ccccc1)S(=O)(=O)c1ccc(C)cc1 | Trichophyton rubrum | MIC | µg/mL | 0.1
[C-]#[N+]C(=C(C)c1ccccc1)S(=O)(=O)c1ccc(C)cc1 | Trichophyton rubrum | MIC | µg/mL | 6
[C-]#[N+]C(=C(CCCCC)CCCCC)S(=O)(=O)c1ccc(C)cc1 | Trichophyton rubrum | MIC | µg/mL | 100
Clc1ccc(COC(Cn2ccnc2)c2ccc(Cl)cc2Cl)c(Cl)c1 (centres unmarked) [miconazole, reference compound] | Trichophyton rubrum | MIC | µg/mL | 0.8
[C-]#[N+]C(=C(C)c1ccco1)S(=O)(=O)c1ccc(C)cc1 | Trichophyton rubrum | MIC | µg/mL | 0.8
C[C@@H]1C/C=C/C=C/C=C/C=C/[C@H](O[C@@H]2O[C@H](C)[C@@H](O)[C@H](N)[C@@H]2O)C[C@@H]2O[C@](O)(C[C@@H](O)C[C@H]3O[C@@H]3/C=C/C(=O)O1)C[C@H](O)[C@H]2C(=O)O [natamycin, reference compound] | Trichophyton rubrum | MIC | µg/mL | 25
[C-]#[N+]C(=CC(C)(C)C)S(=O)(=O)c1ccc(C)cc1 | Trichophyton rubrum | MIC | µg/mL | 0.8
[C-]#[N+]C(C(C)=CC)S(=O)(=O)c1ccc(C)cc1 (centres unmarked) [Example 27b] | Trichophyton rubrum | MIC | µg/mL | 0.8

(1) [C-]#[N+]C(C1=CCOCC1)S(=O)(=O)c1ccc(C)cc1 (centres unmarked) [Example 14b]
(2) [C-]#[N+]C(=Cc1ccc(OC)cc1)S(=O)(=O)c1ccc(C)cc1
(3) [C-]#[N+]C(=C(C)C)S(=O)(=O)c1ccc(C)cc1
(4) [C-]#[N+]C(=C(C)c1ccc([N+](=O)[O-])cc1)S(=O)(=O)c1ccc(C)cc1
Ask | List the 4 entries from lowest MIC to highest MIC value. Output the labels ranked as instructed.
Reply | 3, 4, 1, 2
(3: 0.4 µg/mL, 4: 6 µg/mL, 1: 25 µg/mL, 2: 100 µg/mL)

(I) [C-]#[N+]C(=C(C)CC)S(=O)(=O)c1ccc(C)cc1 [Example 27a]
(II) [C-]#[N+]C(=Cc1ccc(Cl)cc1)S(=O)(=O)c1ccc(C)cc1
Ask | Please compare: I and II . Report which one has the smaller MIC value. Write down the label attached to your selection.
Reply | I

====

System: Trichophyton mentagrophytus
TEST_DETAILS: MIC (Minimum Inhibitory Concentration)
Type: cell-based
SETUP_CONDITIONS: Trichophyton mentagrophytus R 177, read-out: MIC values
MEASUREMENT_NAME: MIC (µg/mL)

Record excerpt, results attached:
MOLECULE | SYSTEM | MEASUREMENT_NAME | MEASURED_NUMBER
[C-]#[N+]C(=Cc1ccccc1)S(=O)(=O)c1ccc(C)cc1 | Trichophyton mentagrophytus | MIC | 6
[C-]#[N+]C(=Cc1ccc(Cl)cc1)S(=O)(=O)c1ccc(C)cc1 | Trichophyton mentagrophytus | MIC | 3
C[C@@H]1C/C=C/C=C/C=C/C=C/[C@H](O[C@@H]2O[C@H](C)[C@@H](O)[C@H](N)[C@@H]2O)C[C@@H]2O[C@](O)(C[C@@H](O)C[C@H]3O[C@@H]3/C=C/C(=O)O1)C[C@H](O)[C@H]2C(=O)O [natamycin, reference compound] | Trichophyton mentagrophytus | MIC | 50

(I) [C-]#[N+]C(C1=CCOCC1)S(=O)(=O)c1ccc(C)cc1 (centres unmarked) [Example 14b]
(II) [C-]#[N+]C(=C(C)c1ccccc1)S(=O)(=O)c1ccc(C)cc1
(III) [C-]#[N+]C(=C(C)CC)S(=O)(=O)c1ccc(C)cc1 [Example 27a]
(IV) [C-]#[N+]C(=Cc1ccc(OC)cc1)S(=O)(=O)c1ccc(C)cc1
Ask | Please rank these molecules by MIC in descending order. List each label, following the requested order.
Reply | I, IV, III, II
(I: 25 µg/mL, IV: 12.5 µg/mL, III: 6 µg/mL, II: 3 µg/mL)

====

Tested on: Trichophyton tonsurans
TEST_DETAILS: MIC (Minimum Inhibitory Concentration)
Type: cell-based
SETUP_CONDITIONS: Trichophyton tonsurans 561-50; read-out: MIC values
MEASUREMENT_NAME: MIC (µg/mL)

Some solved cases for reference:
COMPOUND | MIC, µg/mL
[C-]#[N+]C(C1=CCOCC1)S(=O)(=O)c1ccc(C)cc1 (stereo not shown) [Example 14b] | 0.4
C[C@@H]1C/C=C/C=C/C=C/C=C/[C@H](O[C@@H]2O[C@H](C)[C@@H](O)[C@H](N)[C@@H]2O)C[C@@H]2O[C@](O)(C[C@@H](O)C[C@H]3O[C@@H]3/C=C/C(=O)O1)C[C@H](O)[C@H]2C(=O)O [natamycin, reference compound] | 12.5
Clc1ccc(COC(Cn2ccnc2)c2ccc(Cl)cc2Cl)c(Cl)c1 (stereo not shown) [miconazole, reference compound] | 0.1
[C-]#[N+]C(=Cc1cccn1C)S(=O)(=O)c1ccc(C)cc1 [Example 30] | 0.4

(A) [C-]#[N+]C(=C(C)c1ccccc1)S(=O)(=O)c1ccc(C)cc1 [Example 12]
(B) [C-]#[N+]C(C1=CCSCC1)S(=O)(=O)c1ccc(C)cc1 (stereo not shown) [Example 16b]
Ask | // returns A or B , whichever has the lower MIC Which one? Tell me its label.
Reply | A

====

System: Trichophyton mentagrophytus
TEST_DETAILS: MIC (Minimum Inhibitory Concentration)
Format: cell-based
SETUP_CONDITIONS: Trichophyton mentagrophytus 421-67, read-out: MIC values
MEASUREMENT_NAME: MIC (µg/mL)

COMPOUND | SYSTEM | MEASUREMENT_NAME | MEASURED_NUMBER
[C-]#[N+]C(=C(C)C)S(=O)(=O)c1ccc(C)cc1 [Example 5] | Trichophyton mentagrophytus | MIC | 1.5

(a) [C-]#[N+]C(C(C)=CC)S(=O)(=O)c1ccc(C)cc1 (stereo not drawn) [Example 27b]
(b) [C-]#[N+]C(C1=CCSCC1)S(=O)(=O)c1ccc(C)cc1 (stereo not drawn) [Example 16b]
Ask | Hey, which is lower on measured MIC, a or b ? Pick one and reply with its label.
Reply | a
(a: 3 µg/mL, b: 6 µg/mL)

(a) [C-]#[N+]C(C1=CCOCC1)S(=O)(=O)c1ccc(C)cc1 (stereo not drawn) [Example 14b]
(b) [C-]#[N+]C(=CCCC)S(=O)(=O)c1ccc(C)cc1 [Example 24]
Ask | Lower value for measured MIC? Options: a , b The response must carry the label of the picked entry.
Reply | a
(a: 25 µg/mL, b: 50 µg/mL)

====

Record type: MIC measurement. Applies to: Fusarium (bulb)
Field format: number, assumed µg/mL, no unit text.

Ask | Answer with reported MIC of [C-]#[N+]C(=C1CCCC1)S(=O)(=O)c1ccc(C)cc1 [Example 9]
Reply | 25

Ask | Could you please provide reported MIC for [C-]#[N+]C(=C1CCCCC1)S(=O)(=O)c1ccc(C)cc1 [Example 7] ? Thanks!
Reply | 18.8

Ask | Quick one: give measured MIC for [C-]#[N+]C(=Cc1ccco1)S(=O)(=O)c1ccc(C)cc1 [Example 10]
Reply | 25

Ask | Determine its reported MIC: C[C@@H]1C/C=C/C=C/C=C/C=C/[C@H](O[C@@H]2O[C@H](C)[C@@H](O)[C@H](N)[C@@H]2O)C[C@@H]2O[C@](O)(C[C@@H](O)C[C@H]3O[C@@H]3/C=C/C(=O)O1)C[C@H](O)[C@H]2C(=O)O [natamycin, reference compound]
Reply | 6

====

Test system: Candida albicans
TEST_DETAILS: MIC (Minimum Inhibitory Concentration)
Format: cell-based
SETUP_CONDITIONS: read-out: MIC values, Candida albicans A 3184
// reported MIC per item
Report the figure in µg/mL without appending any unit label.

Answered cases to consult:
MOLECULE | SYSTEM | MEASUREMENT_NAME | MEASURED_NUMBER
[C-]#[N+]C(=C1CCOCC1)S(=O)(=O)c1ccc(C)cc1 [Example 14a] | Candida albicans | MIC | 12.5
[C-]#[N+]C(=C1CCCCC1)S(=O)(=O)c1ccc(C)cc1 | Candida albicans | MIC | 3

Ask | Provide MIC, tested on Candida albicans, for [C-]#[N+]C(C1=CCCCCC1)S(=O)(=O)c1ccc(C)cc1 (stereo not shown) [Example 18b] .
Reply | 12.5

Ask | Specify the recorded MIC for [C-]#[N+]C(=C1CCSCC1)S(=O)(=O)c1ccc(C)cc1 [Example 16a] , system: Candida albicans.
Reply | 12.5
